Each recorded value in this set is attributed to PubChem BioAssay.

Entries and their inhibition of aggregation values follow.
Experiment: reduction of polyQ htt aggregates in cells – imaging, exon1htt(103Q)mCFP cells, high-content imaging, primary screen (AID 483);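 further: compound exposure lasted 3 days before fixation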
Conditions: exon1htt(103Q)mCFP cell line, aggregate imaging, at 2 µM; hits give high values
The source made the active and inactive calls.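 How the source made its calls: active means visual image review flags a hit and inhibition of aggregation exceeds 20%; inconclusive means visual hit but inhibition at or below 20%; inactive means no hit on visual image review.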

Example cases with answers are listed next.
Cc1ccc2nc(SCC(=O)NCc3ccco3)c(C#N)cc2c1 | 17.5% (inactive)
Cn1cnnc1Sc1nc2c(c(=O)n(C)c(=O)n2C)n1C | 11.6% (inactive)
COc1cc(NC(=O)Cc2cccs2)ccc1-n1cnnn1 | -26.9% (inactive)
O=C1CSC(c2cn(-c3ccccc3)nc2-c2cccs2)N1CC1CCCO1 (stereo unspecified) | 10.2% (inactive)
O=S(=O)(NCC1CCCO1)c1ccc(S(=O)(=O)N2CCc3ccccc3C2)cc1 (stereo unspecified) | -21.6% (inactive)

Inquiry: What does the record list as inhibition of aggregation for O=C(CNC(=O)c1cccs1)NCCN1CCN(c2ccccc2F)CC1 ?
Reply text: -28.3% (inactive)

Inquiry: What does the record list as inhibition of aggregation for Cc1cc(C(C)(C)C)cc(C)c1CC1=NCCN1 ?
Reply text: 8.7% (inactive)

Inquiry: What does the record list as inhibition of aggregation for Cc1ccc(O)c(NC(=O)COc2cc(C)ccc2C)c1 ?
Reply text: 3% (inactive)

Inquiry: What does the record list as inhibition of aggregation for O=C(COc1ncnc2ccccc12)NCc1ccc2c(c1)OCO2 ?
Reply text: -8.2% (inactive)

Inquiry: What does the record list as inhibition of aggregation for O=C(OCc1cc2ccccc2[nH]c1=O)c1ccncc1 ?
Reply text: 25.6% (inactive)

Inquiry: What does the record list as inhibition of aggregation for COc1ccc(N2C(=O)C3CCCN3C2c2ccc(F)cc2)cc1Cl (stereo unspecified) ?
Reply text: -12.9% (inactive)
